Molecular target: T1, His-tagged human TIGIT (human, UniProt Q495A1 22-141)
T1 construct: SPR analyte; also called human TIGIT protein; not shown: His tag
T1 sequence: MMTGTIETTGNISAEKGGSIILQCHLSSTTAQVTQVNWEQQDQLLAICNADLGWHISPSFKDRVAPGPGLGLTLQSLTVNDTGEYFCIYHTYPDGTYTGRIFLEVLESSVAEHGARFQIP
Assay: SPR (Biacore T200), antibody captured, His-tagged TIGIT analyte
Measure: kon (M⁻¹ s⁻¹)
Give just the number in M⁻¹ s⁻¹; leave the unit off.

The examples below pair each entry with its known result.
1. TIGIT-100 chimeric antibody (antibody, human IgG1, kappa, V domains shown, Full-length chimeric IgG1 kappa) VH: QVQLQQPGPELVKPGASVKISCKASGYSFTDYNMNWVKQSNGKSLEWIGVINPNSGTDNYNQKFKGKATLTVDQSSSTAYMQLNSLTSEDSAVYFCARGVYFGNYFDSWGQGTTLTVSS VL: DIVMTQSPASLSASVGETVTITCRASENIYSSLAWYQQKQGKSPQLLVFNAKTLTEGVPSRFSGSGSGTQFSLKINSLQPEDFGSYYCQHHYGAPWTFGGGTKLEIKR: 2.2e+06
2. TIGIT-63 chimeric antibody (antibody, human IgG1, kappa, V domains shown, Full-length chimeric IgG1 kappa) VH: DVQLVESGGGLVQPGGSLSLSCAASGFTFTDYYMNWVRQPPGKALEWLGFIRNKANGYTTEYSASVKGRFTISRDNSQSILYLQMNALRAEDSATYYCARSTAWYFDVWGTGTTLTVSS VL: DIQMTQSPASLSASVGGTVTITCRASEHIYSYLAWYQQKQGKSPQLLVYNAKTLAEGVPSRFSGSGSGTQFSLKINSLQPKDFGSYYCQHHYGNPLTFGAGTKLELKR: 250000
3. TIGIT-87 chimeric antibody (antibody, human IgG1, kappa, V domains shown, Full-length chimeric IgG1 kappa) VH: EVKLVESGPELVKPGASMKISCKASGYSFTGYTMNWVKQSHGKNLEWIGLINPYNGGTSYNQKFKGKATLTVDKSSSTAYMELLSLTSEDSAVYYCARYANRFENWFAYWGQGTLVTVSS VL: DIQMTQSPASLSASVGETVTITCRASENIYSYLAWYQQKQGKSPQLLVYNAKTLAEGVPSRFSGSGSGTQFSLKINSLQPEDFGSYYCQHHYGTPWTFGGGTKLEIKR: 2e+06
4. TIGIT-94 chimeric antibody (antibody, human IgG1, kappa, V domains shown, Full-length chimeric IgG1 kappa) VH: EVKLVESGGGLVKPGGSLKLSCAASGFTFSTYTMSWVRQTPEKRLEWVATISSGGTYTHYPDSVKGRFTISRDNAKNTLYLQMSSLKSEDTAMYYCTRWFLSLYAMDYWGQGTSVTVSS VL: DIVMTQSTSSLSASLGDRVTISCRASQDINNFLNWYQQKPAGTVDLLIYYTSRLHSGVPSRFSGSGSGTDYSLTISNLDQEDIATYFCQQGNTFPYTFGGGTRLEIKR: 1.2e+06
5. Hu1217-2-2 (anti-TIGIT positive control antibody) (antibody, V domains shown) VH: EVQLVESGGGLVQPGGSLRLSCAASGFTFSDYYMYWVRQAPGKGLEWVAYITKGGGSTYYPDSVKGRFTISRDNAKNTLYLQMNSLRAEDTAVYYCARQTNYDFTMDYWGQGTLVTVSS VL: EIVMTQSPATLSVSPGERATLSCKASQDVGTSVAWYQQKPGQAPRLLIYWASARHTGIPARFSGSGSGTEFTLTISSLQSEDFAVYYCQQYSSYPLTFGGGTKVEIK: 1.2e+06

# input binder: TIGIT-3 chimeric antibody (antibody, human IgG1, kappa, V domains shown, also called 3VH + 3VL) VH: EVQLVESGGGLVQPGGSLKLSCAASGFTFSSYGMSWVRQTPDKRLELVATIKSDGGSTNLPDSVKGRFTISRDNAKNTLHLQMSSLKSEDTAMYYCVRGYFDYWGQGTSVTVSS VL: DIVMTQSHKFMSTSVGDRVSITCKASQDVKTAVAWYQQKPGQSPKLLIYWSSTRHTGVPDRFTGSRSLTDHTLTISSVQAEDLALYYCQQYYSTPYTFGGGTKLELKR ; wanted: its kon 730000

# input binder: TIGIT-18 chimeric antibody (antibody, human IgG1, kappa, V domains shown, Full-length chimeric IgG1 kappa) VH: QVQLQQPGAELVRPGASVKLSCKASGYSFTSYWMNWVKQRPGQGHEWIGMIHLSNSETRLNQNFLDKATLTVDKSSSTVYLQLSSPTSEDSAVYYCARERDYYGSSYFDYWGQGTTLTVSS VL: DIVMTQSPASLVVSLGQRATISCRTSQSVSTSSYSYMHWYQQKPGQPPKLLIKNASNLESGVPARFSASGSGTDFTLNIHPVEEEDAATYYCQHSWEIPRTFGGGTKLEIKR ; wanted: its kon 430000

# input binder: TIGIT-52 chimeric antibody (antibody, human IgG1, kappa, V domains shown, Full-length chimeric IgG1 kappa) VH: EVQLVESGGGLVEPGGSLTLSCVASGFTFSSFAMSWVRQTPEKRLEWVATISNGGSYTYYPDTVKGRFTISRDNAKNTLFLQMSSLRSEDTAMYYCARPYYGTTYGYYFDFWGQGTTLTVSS VL: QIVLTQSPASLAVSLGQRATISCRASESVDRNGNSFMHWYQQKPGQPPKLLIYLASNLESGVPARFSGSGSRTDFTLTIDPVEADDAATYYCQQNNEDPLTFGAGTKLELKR ; wanted: its kon 440000

# input binder: TIGIT-6 chimeric antibody (antibody, human IgG1, kappa, V domains shown, also called 6VH + 6VL) VH: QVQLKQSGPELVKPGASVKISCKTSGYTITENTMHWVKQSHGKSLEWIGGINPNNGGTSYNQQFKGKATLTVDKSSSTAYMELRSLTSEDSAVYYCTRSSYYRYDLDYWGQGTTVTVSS VL: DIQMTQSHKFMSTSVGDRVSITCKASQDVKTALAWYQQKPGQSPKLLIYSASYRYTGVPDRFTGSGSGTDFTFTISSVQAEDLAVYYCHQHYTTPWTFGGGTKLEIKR ; wanted: its kon 560000

# input binder: TIGIT-15 chimeric antibody (antibody, human IgG1, kappa, V domains shown, Full-length chimeric IgG1 kappa) VH: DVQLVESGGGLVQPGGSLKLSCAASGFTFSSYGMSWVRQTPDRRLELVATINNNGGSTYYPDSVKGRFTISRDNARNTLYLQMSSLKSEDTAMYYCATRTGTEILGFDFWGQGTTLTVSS VL: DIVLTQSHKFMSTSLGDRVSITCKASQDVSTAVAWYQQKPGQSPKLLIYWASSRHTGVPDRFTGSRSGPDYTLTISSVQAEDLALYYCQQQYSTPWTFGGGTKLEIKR ; wanted: its kon 860000

# input binder: TIGIT-19 chimeric antibody (antibody, human IgG1, kappa, V domains shown, also called 19VH + 19VL) VH: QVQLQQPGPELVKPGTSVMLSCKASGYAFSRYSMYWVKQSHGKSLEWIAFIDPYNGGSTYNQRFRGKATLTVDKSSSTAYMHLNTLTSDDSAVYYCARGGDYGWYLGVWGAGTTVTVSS VL: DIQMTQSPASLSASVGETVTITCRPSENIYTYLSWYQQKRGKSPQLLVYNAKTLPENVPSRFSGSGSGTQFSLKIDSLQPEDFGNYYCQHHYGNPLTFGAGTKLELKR ; wanted: its kon 1.5e+06
